Please provide measured Population Mitotic Cells (%) for the entries that follow.
Test system: HEK-293T
protocol details: Multiplex assay against HEK293T
Format: toxicity, cell-based
test context: human, 12 h, 10 µM, compound concentration 10 uM, replicate 2
Write the quantity with the unit trailing the number.

Exercise: Provide value of Population Mitotic Cells (%) for this record tested with HEK-293T: Cc1sc2c(c1C)C(c1ccc(Cl)cc1)=N[C@@H](CC(=O)NCCCCCCCCNC(=O)COc1cccc3c1C(=O)N(C1CCC(=O)NC1=O)C3=O)c1nnc(C)n1-2 (stereo partly drawn)
Key: 46%

Exercise: API: value(readout= Population Mitotic Cells (%), system= HEK-293T, query= `CCCCC1=NC2(CCCC2)C(=O)N1Cc1ccc(-c2ccccc2-c2nnn[nH]2)cc1` )
Key: 43%

Exercise: Lab request: please report Population Mitotic Cells (%) under test system HEK-293T for `Cc1c(CC(=O)O)c2cccnc2n1Cc1ccc(S(C)(=O)=O)cc1C(F)(F)F`
Key: 47%

Exercise: Enter reported Population Mitotic Cells (%) observed with HEK-293T for `O=C(CCCc1ccccc1)Nc1nc2ccccc2c(=O)s1`
Key: 55%

Exercise: API: value(readout= Population Mitotic Cells (%), system= HEK-293T, query= Br.CS(=O)(=O)Nc1c(O)ccc2c1CCCC2C1=NCCN1 (stereo not drawn) )
Key: 44%

Exercise: # query: Population Mitotic Cells (%) | item O=C(NCCN1CCC(n2c(=O)[nH]c3cc(Cl)ccc32)CC1)c1ccc(F)cc1 [HALOPEMIDE] | system: HEK-293T
Key: 34%

Exercise: Enter reported Population Mitotic Cells (%) observed with HEK-293T for COC[C@@H](c1ccc(C(F)(F)F)cc1)N1CCN(C2(C)CCN(C(=O)c3c(C)ncnc3C)CC2)C[C@@H]1C.O=C(O)/C=C\C(=O)O [VICRIVIROC MALEATE]
Key: 37%

Exercise: Recorded Population Mitotic Cells (%) for `C[C@H](N)COC(=O)[C@@H](CCCCN)NC(=O)Cc1c(-c2ccc3ccccc3c2)[nH]c2c1ccc1ccccc12` with HEK-293T, please?
Key: 38%
